System: CD13(−) HT-29 human colorectal adenocarcinoma cells
PROTOCOL NOTES: MTT antiproliferative assay on HT-29 cells
Format: cell-based
CONDITION NOTES: 72 h continuous treatment, average ± SD, read-out: HT-29 (72 h) IC50
QUANTITY NAME: pIC50
Numbers only, as −log10 of the molar value.

## Task Under CD13(−) HT-29 human colorectal adenocarcinoma cells: report pIC50 of COc1cccc2c1C(=O)c1c(O)c3c(c(O)c1C2=O)C[C@@](O)(C(C)=O)C[C@@H]3O[C@H]1C[C@H](N)[C@H](O)[C@H](C)O1 [Dau, daunorubicin] .
## Result 7.00

* * *

PROTOCOL NOTES: MTT antiproliferative assay on MRC-5 cells
Type: cell-based
CONDITION NOTES: human, MRC-5 cells (normal, non-cancerous human fibroblasts), 72 h continuous treatment, average ± SD
QUANTITY NAME: IC50 at 72 h

## Task Note IC50 at 72 h for the molecule shown: COc1cccc2c1C(=O)c1c(O)c3c(c(O)c1C2=O)C[C@@](O)(C(C)=O)C[C@@H]3O[C@H]1C[C@H](N)[C@H](O)[C@H](C)O1 [Dau, daunorubicin]
## Result 250 nM

Each recorded value in this set is attributed to paper PMC7297862.
